Origin of measurements: patent EP2047849A1

# SUBJECT_OF_TEST: UniProt O95819
# Sequence (O95819 whole entry): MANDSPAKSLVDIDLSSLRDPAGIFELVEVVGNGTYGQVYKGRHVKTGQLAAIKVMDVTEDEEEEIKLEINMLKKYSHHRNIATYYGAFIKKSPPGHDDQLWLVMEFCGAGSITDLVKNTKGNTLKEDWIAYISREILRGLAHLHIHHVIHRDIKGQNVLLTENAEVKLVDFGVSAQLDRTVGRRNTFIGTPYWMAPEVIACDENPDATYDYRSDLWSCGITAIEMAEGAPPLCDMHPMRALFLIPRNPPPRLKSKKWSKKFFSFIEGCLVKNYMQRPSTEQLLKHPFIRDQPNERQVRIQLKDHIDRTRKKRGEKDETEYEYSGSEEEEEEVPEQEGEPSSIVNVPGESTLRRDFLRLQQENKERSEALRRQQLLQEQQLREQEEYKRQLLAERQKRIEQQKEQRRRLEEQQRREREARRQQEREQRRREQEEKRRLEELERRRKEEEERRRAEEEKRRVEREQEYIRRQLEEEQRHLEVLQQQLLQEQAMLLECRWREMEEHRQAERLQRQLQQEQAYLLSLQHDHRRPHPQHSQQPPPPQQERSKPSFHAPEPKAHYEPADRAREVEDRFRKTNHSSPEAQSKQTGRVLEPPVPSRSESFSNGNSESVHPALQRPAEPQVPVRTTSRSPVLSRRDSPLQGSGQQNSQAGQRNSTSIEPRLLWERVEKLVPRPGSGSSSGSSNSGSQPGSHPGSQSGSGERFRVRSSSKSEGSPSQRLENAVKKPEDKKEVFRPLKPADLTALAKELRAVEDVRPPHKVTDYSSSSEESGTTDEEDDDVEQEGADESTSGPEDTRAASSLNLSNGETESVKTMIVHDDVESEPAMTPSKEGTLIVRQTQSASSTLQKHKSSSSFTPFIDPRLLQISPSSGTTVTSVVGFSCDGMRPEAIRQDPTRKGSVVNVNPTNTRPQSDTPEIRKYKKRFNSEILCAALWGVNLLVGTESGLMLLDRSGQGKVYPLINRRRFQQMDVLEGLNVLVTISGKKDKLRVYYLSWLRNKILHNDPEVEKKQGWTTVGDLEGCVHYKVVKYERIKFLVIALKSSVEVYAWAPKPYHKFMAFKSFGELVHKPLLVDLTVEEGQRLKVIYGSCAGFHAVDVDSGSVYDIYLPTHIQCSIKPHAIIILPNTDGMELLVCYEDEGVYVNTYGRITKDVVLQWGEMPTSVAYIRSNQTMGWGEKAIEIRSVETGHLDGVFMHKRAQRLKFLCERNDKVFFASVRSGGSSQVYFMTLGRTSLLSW
# PROTOCOL_TEXT: 33PanQinase Activity Assay (in vitro protein kinase activity assay)
# SETTINGS: recombinant purified kinase, 1 µM [γ-33P]-ATP
MEASUREMENT_TYPE: pIC50
Numbers only, as −log10 of the molar value.

## Input Quick one: pIC50 for COc1ccc2[nH]c3c(c4c(c5c6cc(OC)ccc6n(C)c35)C(=O)NC4=O)c2c1 [PQ-013] ?
## Output 7.46

====

# SUBJECT_OF_TEST: FLT3 wt (Homo sapiens, UniProt P36888)
# Sequence (P36888 27-993): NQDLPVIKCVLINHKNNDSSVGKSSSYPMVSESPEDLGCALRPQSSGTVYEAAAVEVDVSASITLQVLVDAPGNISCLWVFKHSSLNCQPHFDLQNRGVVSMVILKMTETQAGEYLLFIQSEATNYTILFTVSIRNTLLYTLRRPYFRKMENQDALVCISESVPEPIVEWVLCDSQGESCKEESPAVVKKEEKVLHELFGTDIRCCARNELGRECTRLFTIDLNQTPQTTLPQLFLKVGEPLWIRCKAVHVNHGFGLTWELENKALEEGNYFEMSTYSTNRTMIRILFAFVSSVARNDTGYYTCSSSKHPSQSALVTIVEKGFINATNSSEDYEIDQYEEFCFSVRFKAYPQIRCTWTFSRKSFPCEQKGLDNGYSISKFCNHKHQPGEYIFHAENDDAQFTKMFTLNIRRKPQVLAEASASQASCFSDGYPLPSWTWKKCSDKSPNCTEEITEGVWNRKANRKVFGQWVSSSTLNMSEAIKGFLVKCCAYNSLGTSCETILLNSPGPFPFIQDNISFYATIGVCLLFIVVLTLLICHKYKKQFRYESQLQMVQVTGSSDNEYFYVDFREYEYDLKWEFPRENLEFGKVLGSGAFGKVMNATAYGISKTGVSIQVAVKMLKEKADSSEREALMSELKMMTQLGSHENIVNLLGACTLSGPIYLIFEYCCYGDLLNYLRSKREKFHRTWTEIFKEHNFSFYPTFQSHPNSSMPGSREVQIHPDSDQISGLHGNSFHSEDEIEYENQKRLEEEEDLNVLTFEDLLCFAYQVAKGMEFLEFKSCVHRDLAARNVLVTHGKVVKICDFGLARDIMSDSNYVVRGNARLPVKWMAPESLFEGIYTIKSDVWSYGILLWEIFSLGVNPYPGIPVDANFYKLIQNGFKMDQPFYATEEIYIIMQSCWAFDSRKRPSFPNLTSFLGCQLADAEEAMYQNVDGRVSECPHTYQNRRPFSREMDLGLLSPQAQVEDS
# PROTOCOL_TEXT: 33PanQinase Activity Assay (in vitro protein kinase activity assay)
# SETTINGS: recombinant purified kinase, 1 µM [γ-33P]-ATP
MEASUREMENT_TYPE: pIC50
One number for each entry, as −log10 of the molar value.

>>> observed_measurement("Cn1c2ccccc2c2c3c(c4c5ccccc5[nH]c4c21)C(=O)NC3=O")
6.42

Go through the items and report each one's pIC50.
1. COc1ccc2[nH]c3c(c4c(c5c6cc(OC)ccc6n(C)c35)C(=O)NC4=O)c2c1
2. COc1ccc2c(c1)c1c3c(c4c5ccccc5n(C)c4c1n2CCC#N)C(=O)NC3=O
3. CN(C)CC(O)Cn1c2ccc(O)cc2c2c3c(c4c5cc(O)ccc5n(C)c4c21)C(=O)NC3=O (racemic)

## Output
8.34
8.34
6.96

## Input Quick one: pIC50 for `NC(=O)CCn1c2ccccc2c2c3c(c4c5ccccc5[nH]c4c21)C(=O)NC3=O` ?
## Output 8.25
